test system: Porphyromonas uenonis; assay: Antimicrobial activity against Porphyromonas uenonis by agar dilution method in presence of 5% laked sheep blood; type: functional
This section presents compounds with their documented MIC50 values.
Provide the reading as a plain figure in µg/mL.

Fill in: MIC50 of C[C@@H](O)[C@H]1C(=O)N2C(C(=O)O)=C(S[C@@H]3CN[C@H](CNS(N)(=O)=O)C3)[C@H](C)[C@H]12 is ___
0.03

Fill in: MIC50 of C[C@@H](O)[C@H]1C(=O)N2C(C(=O)O)=C(S[C@H]3C[C@@H](C(=O)N4CC[C@H](NC(=O)CNC(=N)N)C4)N(C)C3)[C@H](C)[C@H]12 is ___
0.03

Fill in: MIC50 of CC(=N)N1CC[C@H](SC2=C(C(=O)O)N3C(=O)[C@H]([C@@H](C)O)[C@H]3C2)C1 is ___
0.06

Fill in: MIC50 of Cc1ncc([N+](=O)[O-])n1CCO is ___
0.06
